Origin of values: patent US20060122137A1

# Measurement protocol: Thermal melting profiles (Tm) of β-gal siRNA duplexes
# Assay type: physicochemical
# Condition set: Down profile, 1st experiment
Quantity measured: Tm (°C)

1) III: β-gal siRNA, rT incorporated in the anti-sense strand only (SEQ ID NO:5/6) (chain 1 CNACACAAANCAGCGANNNTT; chain 2 AAANCGCNGANNNGNGNAGTT; RNA at 1, 2, 3, 4, 5, 6, 7, 8, 9, 10, 11, 12, 13, 14, 15, 16, 17, 18, 19, other sugars, backbone and the base at N not given here; ribothymidine replaces uracil in antisense strand only); 72.9
2) II: β-gal siRNA, all uracils in both strands changed to ribothymidine (SEQ ID NO:1/2) (chain 1 CNACACAAANCAGCGANNNTT; chain 2 AAANCGCNGANNNGNGNAGTT; RNA at 1, 2, 3, 4, 5, 6, 7, 8, 9, 10, 11, 12, 13, 14, 15, 16, 17, 18, 19, other sugars, backbone and the base at N not given here; all uracils replaced by ribothymidine in both strands); 72.8
3) I (WT): unmodified β-gal siRNA: CUACACAAAUCAGCGAUUU TT / TT GAUGUGUUUAGUCGCUAAA (sense CUACACAAAUCAGCGAUUUTT; antisense TTGAUGUGUUUAGUCGCUAAA; chemistry not fully specified; one strand is listed 3' to 5') [reference compound]; 65.6

---

# Measurement protocol: Thermal melting profiles (Tm) of β-gal siRNA duplexes
# Type: physicochemical
# Condition set: Down profile, 1st experiment
Quantity measured: Tm (°C)

1) IV: β-gal siRNA, rT incorporated in the sense strand only (SEQ ID NO:3/4) (chain 1 CTACACAAATCAGCGATTTTT; chain 2 AAAUCGCUGAUUUGUGUAGTT; chain 1: RNA at 2, 10, 17, 18, 19, other sugars and backbone not given here; chain 2: RNA at 4, 8, 11, 12, 13, 15, 17, other sugars and backbone not given here; positions 1-19 ribonucleotides, further chemistry not fully specified); 67.8

---

# Measurement protocol: Thermal melting profiles (Tm) of β-gal siRNA duplexes
# Assay type: physicochemical
# Condition set: 2nd (duplicate) experiment
# Description: The purpose of this experiment was to determine the effect of incorporating ribothymidines in a double stranded RNA molecule in place of uridines on the melting temperature (TM) of the siRNA molecule. […] The stock solutions of single stranded oligonucleotides were prepared by dissolving the selected sequences in 400 μL 10 mM buffer phosphate pH 7.0 containing 0.1 M NaCl and 0.1 mM EDTA and diluted (1 μL to 200 μL) with water and absorbencies (A260) were measured and the contents were calculated. […]
Quantity measured: Avg. Tm from 2nd Exp.

1) IV: β-gal siRNA, rT incorporated in the sense strand only (SEQ ID NO:3/4) (chain 1 CTACACAAATCAGCGATTTTT; chain 2 AAAUCGCUGAUUUGUGUAGTT; chain 1: RNA at 2, 10, 17, 18, 19, other sugars and backbone not given here; chain 2: RNA at 4, 8, 11, 12, 13, 15, 17, other sugars and backbone not given here; positions 1-19 ribonucleotides, further chemistry not fully specified); 67.8 °C
2) I (WT): unmodified β-gal siRNA: CUACACAAAUCAGCGAUUU TT / TT GAUGUGUUUAGUCGCUAAA (sense CUACACAAAUCAGCGAUUUTT; antisense TTGAUGUGUUUAGUCGCUAAA; chemistry not fully specified; one strand is listed 3' to 5') [reference compound]; 64.9 °C
3) II: β-gal siRNA, all uracils in both strands changed to ribothymidine (SEQ ID NO:1/2) (chain 1 CNACACAAANCAGCGANNNTT; chain 2 AAANCGCNGANNNGNGNAGTT; RNA at 1, 2, 3, 4, 5, 6, 7, 8, 9, 10, 11, 12, 13, 14, 15, 16, 17, 18, 19, other sugars, backbone and the base at N not given here; all uracils replaced by ribothymidine in both strands); 72.25 °C
